- study_system: T1, P8bH1
- T1 chain: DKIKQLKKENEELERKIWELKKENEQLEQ
- experiment_notes: two-hybrid library CCNG1;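 further: natural log of median RNA to DNA barcode read ratio; higher means stronger binding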
quantity_kind: interaction score
The answer should be a number; do not append a unit.

Q: Consider the binder shown here: DKIKQLKKENEELERKIWELKKENEQLEQ [P8bH1] What is its recorded interaction score?
Result: -0.114

Q: Reported interaction score for DKIKQLKKKIEELKRENWELEKENEQLEQ [P4bH1] : what is it?
Result: -0.993
